System Tested: human PDE4B1 (Homo sapiens)
Construct: host or cells: Sf9 cells
Method Notes: cAMP HTRF assay to determine the activity of hPDE4B1
Format: biochemical
Experimental Setup: Percentage inhibition of PDE4B at 1 μM test concentration
Assay Readout: inhibition at 1 µM (%)

• CN(C)C(=O)COc1ccc2c(c1)N(c1nc(-c3ccc(Cl)c(F)c3)nc3c1C[S+]([O-])C3)CC2 (stereo not shown) = 105
• CN(C)C(=O)COc1ccc2c(c1)N(c1nc(-c3ccnc(F)c3)nc3c1C[S+]([O-])C3)CC2 (stereo not shown) = 102
• N#Cc1ccc(-c2nc3c(c(N4CCc5cc(CC(=O)O)ccc54)n2)CCC3)s1 = 95
• CN(C)C(=O)COc1ccc2c(c1)N(c1nc(-c3ccc4c(c3)CCO4)nc3c1C[S+]([O-])C3)CC2 (stereo not shown) = 97

* * *

System Tested: human PDE4B1 (Homo sapiens, UniProt Q07343)
Construct: host or cells: Sf9 cells
Sequence (Q07343 whole entry): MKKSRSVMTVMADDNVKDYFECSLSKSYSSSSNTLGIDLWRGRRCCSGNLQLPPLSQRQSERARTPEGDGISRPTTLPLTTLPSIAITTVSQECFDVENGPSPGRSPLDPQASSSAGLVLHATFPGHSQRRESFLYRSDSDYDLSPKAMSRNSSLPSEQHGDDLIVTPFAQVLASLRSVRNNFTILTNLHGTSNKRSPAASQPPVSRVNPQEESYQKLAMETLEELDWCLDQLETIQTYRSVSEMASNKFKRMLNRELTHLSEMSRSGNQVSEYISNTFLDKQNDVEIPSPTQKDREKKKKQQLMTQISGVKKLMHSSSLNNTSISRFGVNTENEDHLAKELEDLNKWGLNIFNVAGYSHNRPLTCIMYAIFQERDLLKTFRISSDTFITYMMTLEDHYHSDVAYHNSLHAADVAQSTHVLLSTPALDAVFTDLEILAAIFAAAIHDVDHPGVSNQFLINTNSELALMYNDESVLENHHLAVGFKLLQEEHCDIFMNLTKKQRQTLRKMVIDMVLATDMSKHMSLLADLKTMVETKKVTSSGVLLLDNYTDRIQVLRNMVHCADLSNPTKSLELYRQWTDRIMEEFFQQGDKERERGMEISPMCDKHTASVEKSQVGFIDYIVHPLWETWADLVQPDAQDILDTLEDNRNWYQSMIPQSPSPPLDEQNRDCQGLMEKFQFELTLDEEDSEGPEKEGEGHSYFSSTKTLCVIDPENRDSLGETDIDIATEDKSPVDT
Method Notes: cAMP HTRF assay to determine the activity of hPDE4B1
Type: biochemical
Experimental Setup: Percentage inhibition of PDE4B at 1 μM test concentration
Consider the following compounds and their measured inhibition at 1 µM readings.
Assay Readout: inhibition at 1 µM (%)

- Cc1ccccc1-c1nc2c(c(N3CCc4ccc(OCC(=O)N(C)C)cc43)n1)C[S+]([O-])C2 (stereo not shown) [2-94]: 91
- CN(C)C(=O)COc1ccc2c(c1)N(c1nc(-c3ccc(C#N)s3)nc3c1C[S+]([O-])C3)CC2 (stereo not shown) [Compound No. 2-82]: 99
- COC(=O)COc1ccc2c(c1)N(c1nc(-c3ccc(Cl)s3)nc3c1CS(=O)(=O)C3)CC2 [Compound No. 1-77]: 62
- CN(C)C(=O)COc1ccc2c(c1)N(c1nc(-c3ccccc3C#N)nc3c1C[S+]([O-])C3)CC2 (stereo not shown) [2-103]: 91
- COc1ccc(-c2nc3c(c(N4CCc5cc(CC(=O)O)ccc54)n2)CS(=O)(=O)C3)cc1 [Compound No. 1-12]: 108
- COc1cccc(-c2nc3c(c(N4CCc5ccc(OCC(=O)N(C)C)cc54)n2)C[S+]([O-])C3)c1 (stereo not shown) [2-91]: 117
- CN(C)C(=O)COc1ccc2c(c1)N(c1nc(-c3ccc(F)s3)nc3c1C[S+]([O-])C3)CC2 (stereo not shown) [2-48]: 94

* * *

System Tested: human PDE4B1 (Homo sapiens)
Construct: host or cells: Sf9 cells
Method Notes: cAMP HTRF assay to determine the activity of hPDE4B1
Format: biochemical
Experimental Setup: dose response measurements with eight concentrations; reported as ranges; read-out: IC50
Description: cAMP HTRF® Assay to Determine the Activity of hPDE4B1 The inhibiting effect of the compounds on the enzyme activity of human PDE4B1 was measured by the quantification of 5′-adenosine monophosphate (5′-AMP), which is formed from 3′,5′-cyclic adenosine monophosphate (cAMP). Human recombinant enzyme, expressed in Sf9 cells, and the HTRF (homogeneous time-resolved fluorescence) detection method were used in the assay. […]
pIC50: −log10 of the molar value.
Assay Readout: pIC50

• O=C(COc1ccc2c(c1)N(c1nc(-c3ccc(Cl)s3)nc3c1CS(=O)(=O)C3)CC2)NC1CC1 = > 7.00
• CN(C)C(=O)COc1ccc2c(c1)N(c1nc(-c3cccc(Cl)c3)nc3c1C[S+]([O-])C3)CC2 (stereo not shown) = > 7.00
• CN(C)C(=O)COc1ccc2c(c1)N(c1nc(-c3cncnc3)nc3c1C[S+]([O-])C3)CC2 (stereo not shown) = 6.00 to 7.00
• O=C(COc1ccc2c(c1)N(c1nc(-c3ccncc3)nc3c1C[S+]([O-])C3)CC2)N1CCCC1 (stereo not shown) = > 7.00
• CN(C)C(=O)COc1ccc2c(c1)N(c1nc(-c3ccc4sccc4c3)nc3c1C[S+]([O-])C3)CC2 (stereo not shown) = > 7.00
• CN(C)C(=O)COc1ccc2c(c1)N(c1nc(-c3ccncc3)nc3c1C[S+]([O-])C3)CC2 (stereo not shown) = > 7.00
• O=C(O)Cc1ccc2c(c1)CCN2c1nc(-c2ccc(F)s2)nc2c1CSC2 = > 7.00
• O=C(O)Cc1ccc2c(cnn2-c2nc(-c3ccc(Cl)s3)nc3c2CCC3)c1 = 6.00 to 7.00
• COc1ccc(-c2nc3c(c(N4CCc5ccc(OCC(=O)N(C)C)cc54)n2)C[S+]([O-])C3)cc1 (stereo not shown) = > 7.00
• CN(C)C(=O)COc1ccc2c(c1)N(c1nc(-c3ccc(F)c(F)c3)nc3c1C[S+]([O-])C3)CC2 (stereo not shown) = > 7.00

* * *

System Tested: human PDE4B1 (Homo sapiens, UniProt Q07343)
Construct: host or cells: Sf9 cells
Method Notes: cAMP HTRF assay to determine the activity of hPDE4B1
Assay type: biochemical
Experimental Setup: Percentage inhibition of PDE4B at 1 μM test concentration
Entries and their inhibition at 1 µM values follow.
Assay Readout: inhibition at 1 µM (%)

- CN(C)C(=O)COc1ccc2c(c1)N(c1nc(-c3cnc4ccccc4c3)nc3c1C[S+]([O-])C3)CC2 (stereo not drawn): 104
- O=C(COc1ccc2c(c1)N(c1nc(-c3ccc(Cl)s3)nc3c1CCC3)CC2)NCCO: 4
- O=C(COc1ccc2c(c1)N(c1nc(-c3ccncc3)nc3c1CS(=O)(=O)C3)CC2)N1CCC1: 90
- CN(C)C(=O)COc1ccc2c(c1)N(c1nc(-c3cccc(Cl)c3)nc3c1C[S+]([O-])C3)CC2 (stereo not drawn): 119
- COc1ccc(-c2nc3c(c(N4CCc5ccc(OCC(=O)N(C)C)cc54)n2)C[S+]([O-])C3)nc1 (stereo not drawn): 98
- CN(C)C(=O)COc1ccc2c(c1)N(c1nc(-c3ccc(Cl)cc3)nc3c1C[S+]([O-])C3)CC2 (stereo not drawn): 117
- O=C(O)Cc1ccc2c(c1)CCN2c1nc(-c2cncs2)nc2c1CCC2: 83
- O=C(O)Cc1ccc2c(ccn2-c2nc(-c3ccc(Cl)s3)nc3c2CCC3)c1: 64
- Cc1ccc(-c2nc3c(c(N4CCc5ccc(OCC(=O)N(C)C)cc54)n2)C[S+]([O-])C3)cc1 (stereo not drawn): 112
- O=C(COc1ccc2c(c1)N(c1nc(-c3ccc(Cl)s3)nc3c1CCC3)CC2)N1CCCC1: 61
- CN(C(=O)COc1ccc2c(c1)N(c1nc(-c3ccc(Cl)s3)nc3c1CS(=O)(=O)C3)CC2)C1CC1: 68
- O=C(COc1ccc2c(c1)N(c1nc(-c3ccc(Cl)s3)nc3c1CS(=O)(=O)C3)CC2)NCCO: 91
- CCNC(=O)COc1ccc2c(c1)N(c1nc(-c3ccc(Cl)s3)nc3c1CS(=O)(=O)C3)CC2: 52
- O=C(O)Cc1ccc2c(c1)CCN2c1nc(-c2cc3ccccc3s2)nc2c1C[S+]([O-])C2 (stereo not drawn): 108
- CN(C)C(=O)COc1ccc2c(c1)ncn2-c1nc(-c2ccc(Cl)s2)nc2c1C[S+]([O-])C2 (single isomer, unassigned): 39

* * *

System Tested: human PDE4B1 (Homo sapiens, UniProt Q07343)
Construct: host or cells: Sf9 cells
Method Notes: cAMP HTRF assay to determine the activity of hPDE4B1
Assay type: biochemical
Experimental Setup: dose response measurements with eight concentrations; reported as ranges; read-out: IC50
pIC50: −log10 of the molar value.
Assay Readout: pIC50

- COc1ncccc1-c1nc2c(c(N3CCc4ccc(OCC(=O)N(C)C)cc43)n1)C[S+]([O-])C2 (centres unmarked): 6.00 to 7.00
- O=C(O)Cc1ccc2c(c1)CCN2c1nc(-c2ccc(Cl)s2)nc2c1CCC2: > 7.00
- CCNC(=O)Cc1ccc2c(c1)CCN2c1nc(-c2ccc(Cl)s2)nc2c1CS(=O)(=O)C2: 6.00 to 7.00
- COc1ccc(-c2nc3c(c(N4CCc5ccc(OCC(=O)N(C)C)cc54)n2)CS(=O)(=O)C3)cc1Cl: > 7.00
- CNC(=O)COc1ccc2c(c1)N(c1nc(-c3ccc(Cl)s3)nc3c1CS(=O)(=O)C3)CC2: 6.00 to 7.00
- O=C(O)Cc1ccc2c(c1)CCN2c1nc(-c2ccc(F)s2)nc2c1CCC2: > 7.00
- CN(CC1CC1)C(=O)COc1ccc2c(c1)N(c1nc(-c3ccc(Cl)s3)nc3c1CS(=O)(=O)C3)CC2: > 7.00
- CN(C)C(=O)COc1ccc2c(c1)N(c1nc(-c3ccc(Cl)s3)nc3c1CS(=O)(=O)C3)CC2: > 7.00
- NC(=O)COc1ccc2c(c1)N(c1nc(-c3ccc(Cl)s3)nc3c1CS(=O)(=O)C3)CC2: 6.00 to 7.00
- CC(C)NC(=O)COc1ccc2c(c1)N(c1nc(-c3ccc(Cl)s3)nc3c1CS(=O)(=O)C3)CC2: 6.00 to 7.00
- CN(C)C(=O)COc1ccc2c(c1)N(c1nc(-c3ccccc3NS(C)(=O)=O)nc3c1C[S+]([O-])C3)CC2 (centres unmarked): 6.00 to 7.00
- CN(C)C(=O)COc1ccc2c(c1)N(c1nc(-c3ccccc3)nc3c1C[S+]([O-])C3)CC2 (centres unmarked): > 7.00
- CN(C)C(=O)COc1ccc2c(c1)N(c1nc(-c3ccc(C(N)=O)s3)nc3c1CS(=O)(=O)C3)CC2: > 7.00
- COc1ccc(-c2nc3c(c(N4CCc5cc(CC(=O)O)ccc54)n2)CCC3)cc1Cl: > 7.00
- CN(C)C(=O)COc1ccc2oc(=O)n(-c3nc(-c4ccc(Cl)s4)nc4c3C[S+]([O-])C4)c2c1 (centres unmarked): 6.00 to 7.00
- CN(C)C(=O)COc1ccc2c(c1)N(c1nc(-c3cccnc3)nc3c1CS(=O)(=O)C3)CC2: > 7.00
- O=C(COc1ccc2c(c1)N(c1nc(-c3ccc(Cl)s3)nc3c1CS(=O)(=O)C3)CC2)N1CCCC1: > 7.00
- COc1ccc(-c2nc3c(c(N4CCc5cc(CC(=O)O)ccc54)n2)CS(=O)(=O)C3)cc1: > 7.00
- CN(C)C(=O)COc1ccc2c(c1)N(c1nc(-c3ccc(Br)c(F)c3)nc3c1C[S+]([O-])C3)CC2 (centres unmarked): 6.00 to 7.00
- CN(C)C(=O)COc1ccc2c(c1)N(c1nc(-c3ccc4c(c3)CCO4)nc3c1C[S+]([O-])C3)CC2 (centres unmarked): > 7.00
- CN(C)C(=O)COc1ccc2ccn(-c3nc(-c4ccc(Cl)s4)nc4c3C[S+]([O-])C4)c2c1 (centres unmarked): > 7.00
- NC(=O)c1ccc(-c2nc3c(c(N4CCc5cc(CC(=O)O)ccc54)n2)CCC3)s1: > 7.00
- CN(C)C(=O)COc1ccc2c(c1)N(c1nc(-c3ccc(C#N)s3)nc3c1CCC3)CC2: > 7.00
- COc1ccc(-c2nc3c(c(N4CCc5cc(CC(=O)O)ccc54)n2)C[S+]([O-])C3)cc1Cl (centres unmarked): > 7.00
- COc1ccc(-c2nc3c(c(N4CCc5cc(CC(=O)O)ccc54)n2)CCC3)cc1: > 7.00
- NC(=O)Cc1ccc2c(c1)CCN2c1nc(-c2ccc(Cl)s2)nc2c1CS(=O)(=O)C2: > 7.00
- CN(C)C(=O)COc1ccc2c(c1)N(c1nc(-c3ccc4cnccc4c3)nc3c1C[S+]([O-])C3)CC2 (centres unmarked): > 7.00
- COc1ccc(-c2nc3c(c(N4CCc5cc(CC(=O)O)ccc54)n2)CS(=O)(=O)C3)cc1F: > 7.00
- COc1ccc(-c2nc3c(c(N4CCc5ccc(OCC(=O)N(C)C)cc54)n2)CS(=O)(=O)C3)cc1F: > 7.00

Where do these numbers come from? They come from patent US9527832B2.
